target: KRAS Q61H (Homo sapiens (Human), UniProt P01116+P62937, Q61H); assay: Ras-Raf disruption/FRET/MOA assay (BRAF RBD, Cyclophilin A); assay type: biochemical
Sequence (P01116 other isoform, or with tags, fused parts or gaps Q61H): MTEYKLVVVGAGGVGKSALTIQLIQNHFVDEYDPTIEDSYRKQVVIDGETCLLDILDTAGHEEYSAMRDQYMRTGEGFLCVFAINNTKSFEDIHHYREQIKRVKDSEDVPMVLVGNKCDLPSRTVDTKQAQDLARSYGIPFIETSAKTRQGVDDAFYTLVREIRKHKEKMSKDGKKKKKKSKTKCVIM
Sequence (P62937 whole entry): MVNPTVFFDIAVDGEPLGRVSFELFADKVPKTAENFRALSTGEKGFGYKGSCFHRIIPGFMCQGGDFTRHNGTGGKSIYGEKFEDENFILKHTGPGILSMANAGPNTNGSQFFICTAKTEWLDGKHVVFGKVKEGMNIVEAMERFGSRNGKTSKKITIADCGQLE
pIC50: −log10 of the molar value.
Listing of recorded pIC50 by entry.

Reference set, count: 2
{"Structure smiles": "CCn1c(-c2cccnc2[C@H](C)OC)c2c3cc(ccc31)-c1csc(n1)C[C@H](NC(=O)[C@H](C(C)C)N(C)C(=O)[C@@H]1[C@@H]3CN(C)C[C@@H]31)C(=O)N1CCC[C@H](N1)C(=O)OCC(C)(C)C2", "pIC50": "6.00 to 7.00"}
{"Structure smiles": "CCn1c(-c2cccnc2[C@H](C)OC)c2c3cc(ccc31)-c1csc(n1)C[C@H](NC(=O)[C@H](C(C)C)N(C)C(=O)N1CCC1)C(=O)N1CCC[C@H](N1)C(=O)OCC(C)(C)C2", "pIC50": "7.00 to 8.00"}

Next compound, pIC50 to be filled in.
Provide pIC50 value for the following compound: CCO[C@@H]1c2nc(cs2)-c2ccc3c(c2)c(c(-c2cc(C4CCN(C5COC5)CC4)cnc2[C@H](C)OC)n3CC)CC(C)(C)COC(=O)[C@@H]2CCCN(N2)C(=O)[C@H]1NC(=O)[C@H]1[C@H](C)[C@@H]1C
6.00 to 7.00

Just for reference, patent US20250195521A1 is where these values come from.
